- Tested on: SK-OV-3 ovarian
- test protocol: NCI-60 one-dose screen, 48 h (100 = growth as untreated, 0 = no growth, -100 = all killed)
- experimental conditions: 10 µM unless noted
Compounds without any hit were thinned out: in the full panel of roughly 83,000, 20% have a hit.
quantity name: growth (%)
# number only, unit % dropped from output

Please review the entries below; each comes with its answer.
CCOc1nc(-c2ccccc2)cc2c(O)c(C(=O)n3nc(C)cc3C)[nH]c(=O)c12; 102
Cc1cc(C(=O)O)c(C)cc1C(=O)O; 106
C/C(=C\CCc1ccsc1)CC/C=C(\C)CCCN1CCC(CO)CC1; 55.5
COc1cc(/C=C/C(=O)c2ccc(F)cc2)ccc1OCCCCCOc1cc2c(cc1OC)C(=O)N1CCCC1C=N2 (stereo not given); -4.32
Cc1ccc(NC(=O)Nc2ccc(-c3cccnc3)cc2N2CCC(CO)CC2)cc1; 28.4
O=C(Nc1ccncc1)C(=O)c1cn(S(=O)(=O)c2cccc(F)c2)c2ccccc12; 93.8

Query: Give the measured growth of COc1ccc(/C=C(\C#N)c2ccccc2)cc1 .
Response: 114

Query: Data request, read-out growth, for COC(=O)CC1=C(C)/C(=C/c2[nH]c(-c3ccc[nH]3)cc2OC)N=C1C
Response: 20.2

Query: Record request: growth value, item Cc1c(NCc2nnc3n(Cc4ccccc4)c(=O)c4c5c(sc4n23)CCCC5)c(=O)n(-c2ccccc2)n1C
Response: 120

Query: # query: growth of entry Oc1ccc(-c2nn(-c3ccccc3)cc2-c2nc3ccccc3s2)cc1
Response: 99

----------
- Tested on: A549/ATCC NSCLC
- test protocol: NCI-60 one-dose screen, 48 h (100 = growth as untreated, 0 = no growth, -100 = all killed)
- experimental conditions: 10 µM unless noted
The panel holds about 83,000 compounds, 20% with a hit somewhere; the sample as a whole holds those more often.
// NB: equality with 90% counts as f; only growth strictly below is t

Would you please look over these solved cases?
CN(CC(=O)Nc1nc2ccccc2[nH]1)S(=O)(=O)c1ccc(Cl)cc1; f
COc1cc(OC)c2sc(-c3ccc(-n4cncc4-c4ccc(N)cc4)cc3)nc2c1; t
Cc1ccc(C=C2C(Cl)=C(Cl)C(Cl)=C2Cl)cc1; t

Query: Below 90% on growth? Entry NS(=O)(=O)c1ccc(NC2=C(Cl)C(=O)c3ccccc3C2=O)cc1
Response: f

Query: Confirm or reject: growth of Cn1cc(-c2csc(-c3c[nH]c4ncccc34)n2)c2cc(Br)cnc21 lies strictly below 90%
Response: t

Query: Please let me know if O=C(Nc1ccc(Nc2ccncc2)cc1)c1ccc(Nc2ccnc3ccc([N+](=O)[O-])cc23)cc1[N+](=O)[O-] shows growth below 90%.
Response: t

----------
- Test system: SF-539 CNS
- test protocol: NCI-60 one-dose screen, 48 h
- experimental conditions: 10 µM unless noted
This is part of a sample that, as a whole, favours compounds with a hit. Of some 83,000 tested, about 20% had one in any assay. Active and inactive are the calls of the source. Rule for the calls: active = growth percent below 10; inactive = the rest.
Answer with one of the outcomes given here: YES for active, NO for inactive

Answered cases to consult:
CN1CCN(Cc2ccc(NC(=O)c3[nH]ncc3Nc3ccnc4ccnn34)cc2)CC1; NO
O=C(Nc1nc2ccccc2s1)c1cc(-c2ccc(F)cc2)n2nc(-c3ccccc3)cc2n1; NO
Cn1cc(-c2csc(-c3cn(C)c4ncccc34)n2)c2cc(Br)cnc21; NO

Query: Returns: the outcome recorded for CSC1=Nc2c(c(C)c(-c3ccccc3)n2CCCN2CCCCC2)C2=NC(=O)C[C@H](C)N12 in this assay.
Response: NO

Query: Per the assay record, what outcome was assigned to ClC1=C(Cl)C(Cl)=C(Cl)C1=C/C=C/c1ccccc1 ?
Response: YES
